tgt: T1, human serum albumin (human, UniProt P02768 25-609)
T1 construct: Immobilised on SPR chips; also added in solution to the cell assays; also called HSA; humanSA
measurement.notes: SPR Biacore 3000, HSA on chip, pH 7.4
observation.type: koff (s⁻¹)
Kindly answer with a numeric value in s⁻¹, unit omitted.

koff recorded for this binder, TA-Fc-ABDEG-2H11-v15 (Fc fusion) DKTHTCPPCPAPELLGGPSVFLFPPKPKDTLYITREPEVTCVVVDVSHEDPEVKFNWYVDGVEVHNAKTKPREEQYNSTYRVVSVLTVLHQDWLNGKEYKCKVSNKALPAPIEKTISKAKGQPREPQVYTLPPSRDELTKNQVSLTCLVKGFYPSDIAVEWESNGQPENNYKTTPPVLDSDGSFFLYSKLTVDKSRWQQGNVFSCSVMHEALKFHYTQKSLSLSPGGGGGSGGGGSGGGGSGGGGSELQVVESGGGLVQAGGSLRLSCAASGRTFRSNTMGWFRQAPGKEREFVAAITWSGGTTYYADSVKGRFAISGDNAKNTVYLQMNSLKPEDTAVYYCAAEGPKWEPWNGIYHPAAFGSWGQGTQVTVSS , is 0.0025
